Target: ERα (Homo sapiens)
Sequence (P03372 whole entry): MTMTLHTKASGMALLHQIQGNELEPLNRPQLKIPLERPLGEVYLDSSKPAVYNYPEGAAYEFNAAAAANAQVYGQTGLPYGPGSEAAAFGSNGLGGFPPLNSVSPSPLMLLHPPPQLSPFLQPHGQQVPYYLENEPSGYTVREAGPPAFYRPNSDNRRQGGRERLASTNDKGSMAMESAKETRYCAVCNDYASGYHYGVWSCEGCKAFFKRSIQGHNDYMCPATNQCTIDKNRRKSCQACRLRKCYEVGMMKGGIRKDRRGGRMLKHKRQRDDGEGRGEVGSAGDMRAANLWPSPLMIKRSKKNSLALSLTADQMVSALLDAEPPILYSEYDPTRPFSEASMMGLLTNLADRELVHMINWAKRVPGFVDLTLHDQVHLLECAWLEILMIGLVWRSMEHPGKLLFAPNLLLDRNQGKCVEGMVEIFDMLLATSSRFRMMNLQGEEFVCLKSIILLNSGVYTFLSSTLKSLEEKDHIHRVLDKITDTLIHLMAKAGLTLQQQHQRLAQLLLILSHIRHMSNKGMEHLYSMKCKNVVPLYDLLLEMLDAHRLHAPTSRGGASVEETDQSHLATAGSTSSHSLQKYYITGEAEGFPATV
Test: ERE transcriptional reporter gene assay in MCF7 cells
Assay type: cell-based
Design: endogenous in cells; host or cells: MCF7 cells with 3x-ERE-GFP reporter
Conditions: MCF7, 1 nM E2, read-out: anti-transcriptional IC50
pIC50: −log10 of the molar value.
readout_name: pIC50

compound	target_entity	readout_name	experimental_result
O=C(c1ccccc1)N1C(c2ccc(OCCN3CCCC3)cc2)c2ccc(O)cc2CC12CC2 (stereo not shown) [T6I-1D]	ERα (Homo sapiens)	pIC50	~7.00

====

System: Ishikawa endometrial cells
Test: Alkaline phosphatase (AP) assay in Ishikawa cells
Assay type: cell-based, human
Settings: 1 nM E2 or 1 μM compound, 72 h, absorbance at 405 nm, mean + std. dev., n = 3-9
Description: SERM enhancement of ERα accumulation in breast cancer cells correlates with uterotrophic activities[22],[30]. Despite the inclusion of side arms from known SERDs, most T6Is appeared SERM-like in breast cancer cells as they increased ERα levels. […] This difference was significant (p = 0.004) compared to 4OHT, which measured 0.68 ± 0.12 absorbance units. […] AP assays were performed as described. […] After 60 min at 40 °C, absorbance was read at 405 nm on a BioTek Cytation 5 plate reader.
The molecules listed here are annotated with their AP1 Induction.
readout_name: AP1 Induction

molecule	experimental_result
O=C(c1ccccc1)N1C(c2ccc(OCC3CCN(CCCF)C3)cc2)c2ccc(O)cc2CC12CC2 (centres unmarked)	0.63 + 0.08
O=C(c1ccccc1)N1C(c2ccc(OCC3CN(CCCCl)C3)cc2)c2ccc(O)cc2CC12CC2 (centres unmarked)	0.61 + 0.10
CCCCCN1CCC(COc2ccc(C3c4ccc(O)cc4CC4(CC4)N3C(=O)c3ccccc3)cc2)C1 (centres unmarked)	0.44 + 0.08
Oc1ccc2c(c1)CC[C@H](c1ccccc1)[C@@H]2c1ccc(OCCN2CCCC2)cc1	0.51 + 0.16
CCCN1CCC(CSc2ccc(C3c4ccc(O)cc4CC4(CC4)N3C(=O)c3ccccc3)cc2)C1 (centres unmarked)	0.42 + 0.07
CCNCCc1ccc(CN(CC)c2cc(OC)ccc2[C@@H]2CCc3cc(O)ccc3C2)cc1	0.28 + 0.08
CCN1CC(Oc2ccc(C3c4ccc(O)cc4CC4(CC4)N3C(=O)c3ccccc3)cc2)C1 (centres unmarked)	0.30 + 0.07
CCN1CC(COc2ccc(C3c4ccc(O)cc4CC4(CC4)N3C(=O)c3ccccc3)cc2)C1 (centres unmarked)	0.34 + 0.07

====

The compounds listed here are annotated with their AP1 Induction.
System: Ishikawa endometrial cells
Experiment: Alkaline phosphatase (AP) assay in Ishikawa cells
Type: cell-based, human
Conditions: 1 nM E2 or 1 μM compound, 72 h, absorbance at 405 nm, mean + std. dev., n = 3-9
readout_name: AP1 Induction

compound	target_entity	readout_name	experimental_result
O=C(c1ccccc1)N1C(c2ccc(OCC3CN(CCCF)C3)cc2)c2ccc(O)cc2CC12CC2 (centres unmarked)	Ishikawa endometrial cells	AP1 Induction	0.69 + 0.16
CC/C(=C(\c1ccc(O)cc1)c1ccc(OCCN(C)C)cc1)c1ccccc1 [4OHT, 4-hydroxytamoxifen, reference compound]	Ishikawa endometrial cells	AP1 Induction	0.67 + 0.12
CCCCN1CCC(COc2ccc(C3c4ccc(O)cc4CC4(CC4)N3C(=O)c3ccccc3)cc2)C1 (centres unmarked)	Ishikawa endometrial cells	AP1 Induction	0.55 + 0.06
C[C@]12CC[C@@H]3c4ccc(O)cc4C[C@@H](CCCCCCCCC[S+]([O-])CCCC(F)(F)C(F)(F)F)[C@H]3[C@@H]1CC[C@@H]2O (some centres unmarked)	Ishikawa endometrial cells	AP1 Induction	0.25 + 0.08
CCCN1CC(COc2ccc(C3c4ccc(O)cc4CC4(CC4)N3C(=O)c3ccccc3)cc2)C1 (centres unmarked)	Ishikawa endometrial cells	AP1 Induction	0.24 + 0.07
CCCN1CCC(COc2ccc(C3c4ccc(O)cc4CC4(CC4)N3C(=O)c3ccccc3)cc2)C1 (centres unmarked)	Ishikawa endometrial cells	AP1 Induction	0.55 + 0.09
CCCN1CCC(CNc2ccc(C3c4ccc(O)cc4CC4(CC4)N3C(=O)c3ccccc3)cc2)C1 (centres unmarked)	Ishikawa endometrial cells	AP1 Induction	0.50 + 0.09
CCCN1CCC(CCc2ccc(C3c4ccc(O)cc4CC4(CC4)N3C(=O)c3ccccc3)cc2)C1 (centres unmarked)	Ishikawa endometrial cells	AP1 Induction	0.57 + 0.08
